FYI, the data here is from patent US20210347873A1.

- Test System: T1, cynomolgus BLyS (full length, arginine to histidine at position 132) on CHO-K1 cells (cynomolgus, UniProt Q9Y275 1-285 (human entry))
- T1 construct: also called cyno BLyS; CHO-K1 cynoBLyS
- T1 chain: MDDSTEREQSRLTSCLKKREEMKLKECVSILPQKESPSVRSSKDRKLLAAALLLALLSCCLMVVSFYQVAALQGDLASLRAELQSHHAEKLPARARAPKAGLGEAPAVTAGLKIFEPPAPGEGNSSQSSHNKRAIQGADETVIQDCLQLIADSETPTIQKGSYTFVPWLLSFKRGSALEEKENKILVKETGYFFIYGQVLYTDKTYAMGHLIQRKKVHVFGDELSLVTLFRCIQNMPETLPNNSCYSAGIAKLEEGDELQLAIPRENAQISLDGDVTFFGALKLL
- Assay: flow cytometry, CHO-K1 cynoBLyS cells, antibody 0.0213 nM
Reported Endpoint: MFI (MFI)
Report only the number, with the unit MFI understood.

Answered cases to consult:
{"columns": ["Binder", "Measurement Unit", "MFI"],
 "data": [
  ["111D10D6G3 (antibody, V domains shown, Mouse hybridoma monoclonal antibody purified on Protein G) VH: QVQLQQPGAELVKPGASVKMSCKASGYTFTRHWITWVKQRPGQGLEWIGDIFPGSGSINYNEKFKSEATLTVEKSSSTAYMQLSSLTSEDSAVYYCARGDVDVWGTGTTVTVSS VL: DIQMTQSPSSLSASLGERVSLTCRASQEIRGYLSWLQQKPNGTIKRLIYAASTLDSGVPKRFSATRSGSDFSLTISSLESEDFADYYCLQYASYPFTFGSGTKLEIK", "MFI", 108],
  ["97E7B3F2 (antibody, V domains shown, Mouse hybridoma monoclonal antibody purified on Protein G) VH: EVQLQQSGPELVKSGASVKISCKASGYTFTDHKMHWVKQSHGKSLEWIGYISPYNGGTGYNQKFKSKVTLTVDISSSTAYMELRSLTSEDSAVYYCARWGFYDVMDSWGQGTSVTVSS VL: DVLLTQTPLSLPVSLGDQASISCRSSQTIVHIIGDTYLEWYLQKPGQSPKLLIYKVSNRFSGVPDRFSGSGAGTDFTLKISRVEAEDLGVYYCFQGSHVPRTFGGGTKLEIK", "MFI", 112]
]}

Prompt: Fill in the blank: the reported MFI of L1D12 (antibody, V domains shown, From a human naive scFv phage library; also called human BLyS antibody L1D12; LID12) VH: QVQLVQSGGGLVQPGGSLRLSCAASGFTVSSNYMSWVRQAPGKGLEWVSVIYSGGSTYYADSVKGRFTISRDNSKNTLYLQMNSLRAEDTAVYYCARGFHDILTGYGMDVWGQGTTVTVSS VL: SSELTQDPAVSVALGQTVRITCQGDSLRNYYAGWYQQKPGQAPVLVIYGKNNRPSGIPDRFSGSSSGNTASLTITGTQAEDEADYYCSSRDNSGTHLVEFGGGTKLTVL is ____.
Completion: 135
